Reference source for all entries: ChEMBL document CHEMBL1139624

Biological target: Replicase polyprotein 1a (Severe acute respiratory syndrome-related coronavirus) (UniProt P0C6U8)
Assay: In vitro percent inhibition against SARS coronavirus main protease (SARS CoV 3C-like protease) at 20 uM
Please provide measured inhibition for the entries that follow.
Put down the number, then write its unit next to it.

Incoming: Name the recorded inhibition for `O=C1C(=O)N(Cc2cc3ccccc3s2)c2c(Cl)ccc(Cl)c21` .
Outgoing: 46%

Incoming: GET /values?readout=inhibition&item= `O=C(Nc1ccc(F)cc1F)c1ccc(CN2C(=O)C(=O)c3cc(I)ccc32)s1`
Outgoing: 32%

Incoming: Dear colleague, I am looking for the recorded inhibition of the following compound: `Nc1ccc2c(c1)C(=O)C(=O)N2CC(=O)c1cc2ccccc2s1`
Outgoing: 40%

Incoming: Sample `O=C1C(=O)N(Cc2cc3ccccc3o2)c2ccc([N+](=O)[O-])cc21` — what was its inhibition?
Outgoing: 24%

Incoming: Quick one: inhibition of `Nc1cccc2c1N(Cc1cc3ccccc3s1)C(=O)C2=O` ?
Outgoing: 31%

Incoming: Recorded inhibition of `COc1ccc2c(c1)C(=O)C(=O)N2Cc1cc2ccccc2s1` , please.
Outgoing: 27%

Incoming: State the recorded inhibition for this entry: `O=C(NC1CCCCC1)c1ccc(CN2C(=O)C(=O)c3cc(I)ccc32)s1`
Outgoing: 36%

Incoming: I'd like to know its inhibition. The compound in question is `CC(C)NC(=O)c1ccc(CN2C(=O)C(=O)c3cc(I)ccc32)s1`
Outgoing: 47%

Incoming: Can you share its inhibition? I mean this compound: `Cc1cc2c(c([N+](=O)[O-])c1)N(CC(=O)c1cc3ccccc3s1)C(=O)C2=O`
Outgoing: 40%

Incoming: Entry `COc1ccc2c(c1)C(=O)C(=O)N2Cc1cc2ccccc2o1` has what inhibition?
Outgoing: 13%

Incoming: What measured inhibition goes with `O=C(Nc1ccc(F)cc1)c1ccc(CN2C(=O)C(=O)c3cc(I)ccc32)s1` ?
Outgoing: 46%

Incoming: I'd like to know its inhibition. The compound in question is `Cc1noc(C)c1CN1C(=O)C(=O)c2cc(C(N)=O)ccc21`
Outgoing: 25%

Incoming: Could you share which inhibition value was measured for `Cc1cc2c(c([N+](=O)[O-])c1)N(Cc1cc3ccccc3s1)C(=O)C2=O` ?
Outgoing: 39%

====

Biological target: Replicase polyprotein 1a (Severe acute respiratory syndrome-related coronavirus, UniProt P0C6U8)
Assay: In vitro inhibitory concentration SARS coronavirus main protease (SARS CoV 3C-like protease)
MEASURED_PROPERTY: pIC50
Remember, pIC50 is on a log scale: it is -log10 of the molar concentration.

Incoming: Fill in the blank: the reported pIC50 of `O=C1C(=O)N(Cc2cc3ccccc3s2)c2c(Br)cccc21` is ____.
Outgoing: 6.01

====

Biological target: Replicase polyprotein 1a (Severe acute respiratory syndrome-related coronavirus, UniProt P0C6U8)
Test: In vitro inhibitory concentration against SARS coronavirus main protease (SARS CoV 3C-like protease)
Field: pIC50. Provide a value for each of the molecules that follow.
The scale used: pIC50 is minus the common logarithm of the concentration in molar units.

Incoming: Report pIC50 for `O=C1C(=O)N(Cc2ccc(C(=O)N3CCCCC3)s2)c2ccc(I)cc21` please.
Outgoing: 4.76

Incoming: Which pIC50 value is on record for `O=C1C(=O)N(Cc2cc3ccccc3s2)c2ccc(I)cc21` ?
Outgoing: 6.02

Incoming: State the recorded pIC50 for this entry: `Cc1noc(C)c1CN1C(=O)C(=O)c2cc(C#N)ccc21`
Outgoing: 5.14

Incoming: // query pIC50 value for entry `O=C(Nc1ccc(Cl)cc1)c1ccc(CN2C(=O)C(=O)c3cc(I)ccc32)s1`
Outgoing: 4.90

Incoming: What value of pIC50 has been recorded for this entry: `O=C1C(=O)N(Cc2ccc(F)cc2Cl)c2ccc(I)cc21`
Outgoing: 5.03

Incoming: Data request, read-out pIC50, for `O=C1C(=O)N(Cc2cc3ccccc3s2)c2c1cccc2[N+](=O)[O-]`
Outgoing: 5.70

Incoming: Name the reported pIC50 value associated with the molecule `O=C1C(=O)N(Cc2cc3ccccc3s2)c2ccccc21`
Outgoing: 4.88

Incoming: What pIC50 value was documented for this molecule, `O=C1C(=O)N(C/C=C/c2cc3ccccc3s2)c2ccc(I)cc21` ?
Outgoing: 4.63

Incoming: # input molecule: `O=C1C(=O)N(Cc2cc3ccccc3s2)c2cccc(Cl)c21` ; wanted: its pIC50
Outgoing: 4.95

Incoming: State the recorded pIC50 for this entry: `O=C1C(=O)N(Cc2cc3ccccc3s2)c2ccc(F)cc21`
Outgoing: 5.32

====

Molecular target: UniProt:P0C6U8
Experiment: In vitro inhibitory concentration against SARS coronavirus main protease (SARS CoV 3C-like protease) at 20 uM
MEASURED_PROPERTY: pIC50
Friendly reminder that pIC50 comes from taking -log10 of the concentration in mol/L.

Incoming: Fill in the blank: the reported pIC50 of O=C1C(=O)N(CC2COc3ccccc3O2)c2ccc(I)cc21 (stereo unspecified) is ____.
Outgoing: 4.87
